conditions: in cyclohexanone, 288.15 K
RESULT_TYPE: solubility (mole fraction)

response.value for O=[N+]([O-])c1ccc(S(=O)(=O)[O-])cc1.[Na+] (field: solubility (mole fraction)) = 0.000913

----------
conditions: in THF, 313.15 K
RESULT_TYPE: solubility (mole fraction)
Answer with a bare number; do not write a unit.

response.value for O=[N+]([O-])c1ccc(S(=O)(=O)[O-])cc1.[Na+] (field: solubility (mole fraction)) = 0.000138

----------
settings: in cyclohexanone, 283.15 K
RESULT_TYPE: solubility (mole fraction)
Answer with a bare number; do not write a unit.

response.value for O=[N+]([O-])c1ccc(S(=O)(=O)[O-])cc1.[Na+] (field: solubility (mole fraction)) = 0.000906
